Item-by-item account of Growth Rate
system: U2OS; assay: Incucyte cell viability with U2OS; type: toxicity, cell-based; conditions: human, 12 h, 10 µM, compound concentration 10 uM, replicate number 2; also: unitless GR value; below 1 slowed growth and below 0 cell loss

{"compound": "CC(C)c1ccc(CC(=O)N[C@H](C)c2ccc(OCC(F)(F)F)cn2)cc1 [SUVECALTAMIDE]", "Growth Rate": 0.89}
{"compound": "Oc1cc2c(cc1O)CN(C(=S)NCCc1ccc(Cl)cc1)CCC2 [CAPSAZEPINE]", "Growth Rate": 0.84}
{"compound": "COc1cc(C(=O)NC2CCN(C)CC2)ccc1Nc1ncc2c(n1)N(C1CCCC1)CC(F)(F)C(=O)N2C", "Growth Rate": -0.13}
{"compound": "CCn1ccc(Nc2ncc3c(n2)-c2c(nn(C)c2-c2ccc(-c4cnn(C)c4)cc2Cl)CC3)n1", "Growth Rate": 0.22}
{"compound": "N#C/C(=C\\c1ccc(O)c(O)c1)C(=O)OCCc1cccs1", "Growth Rate": 0.63}
{"compound": "CCN1C(=O)c2cc(C)ccc2N(C)c2ncccc21", "Growth Rate": 0.85}
{"compound": "COc1cc(NC(=O)c2ccc(-c3ccc(Cl)cc3)o2)cc(OC)c1", "Growth Rate": 0.72}
{"compound": "CN[C@@H](C)C(=O)N[C@H](C(=O)N1CCC[C@H]1C(=O)Nc1snnc1-c1ccccc1)C1CCCCC1", "Growth Rate": 0.89}
{"compound": "COc1cc(-c2cc([C@H](O)C3CC3)n3ncnc(N)c23)ccc1CO", "Growth Rate": 0.85}
{"compound": "COCCN(C)c1ccc(NC(=O)/C=C(\\C)c2ccc3ccccc3c2)c(C(=O)O)c1", "Growth Rate": 0.92}

###

system: U2OS; test: Incucyte cell viability with U2OS; assay type: toxicity, cell-based; settings: human, 12 h, 10 µM, compound concentration 10 uM, replicate number 2; also: unitless GR value; below 1 slowed growth and below 0 cell loss
Returns one of 1.0 or 0.0; 1.0 when Growth Rate is >= 0.6.

{"molecule": "Nc1ncnc2[nH]c(-c3ccccc3)nc12", "category label": 1.0}
{"molecule": "COc1c(NC(=O)c2cc3cccc(Oc4ccnc(C(=O)N5CCN(C)CC5)c4)c3n2C)cc(C(C)(C)C)cc1NS(C)(=O)=O", "category label": 1.0}
{"molecule": "CC/C(=C(\\c1ccccc1)c1ccc(OCCN(C)C)cc1)c1ccccc1.O=C(O)CC(O)(CC(=O)O)C(=O)O [TAMOXIFEN CITRATE]", "category label": 1.0}
{"molecule": "CNc1nc(-c2ccc3c(N)n[nH]c3c2)cc(N2C[C@@H](C(=O)NC3CCCCC3)CC[C@H]2C)n1", "category label": 1.0}
{"molecule": "FC(F)(F)Oc1ccc(-c2ccc3nnc(C(F)(F)F)n3c2)cc1", "category label": 1.0}
{"molecule": "Cc1ccc2c(N)c(C(=O)NC3CCc4cc(N5CC6CCC(C5)N6)ccc4C3)sc2n1.O=CO (stereo not drawn)", "category label": 0.0}
{"molecule": "CCOC(=O)c1cnn(-c2ccc(NC(=O)C(Cl)=C(Cl)Cl)cc2)c1C(F)(F)F", "category label": 0.0}

###

system: Fibroblast; experiment: Incucyte cell viability with human fibroblast; type: toxicity, cell-based; conditions: 24 h, 10 µM, compound concentration 10 uM, replicate number 2; also: unitless GR value; below 1 slowed growth and below 0 cell loss
Listed next: entries and their corresponding Growth Rate.

{"mol": "COc1ccc(Cl)cc1[C@]1(F)C(=O)Nc2cc(C(F)(F)F)ccc21", "Growth Rate": 0.58}
{"mol": "NC(=O)c1cc(-c2ccnc(NC3CCCCC3)c2)nc(N2CCNCC2)c1", "Growth Rate": 0.36}
{"mol": "CC[C@H](C(=O)Nc1ccccc1N1CCCC1)c1ccccc1", "Growth Rate": 0.9}
{"mol": "CNc1nc(Nc2ccc(C(=O)N3CCOCC3)cc2OC)ncc1Cl", "Growth Rate": 0.99}
{"mol": "Cl.Cl.O=[N+]([O-])c1ccc(CN2CCOCCOCCN(Cc3ccc([N+](=O)[O-])cc3)CCOCC2)cc1", "Growth Rate": 0.84}

###

test system: Fibroblast; experiment: Incucyte cell viability with human fibroblast; type: toxicity, cell-based; conditions: 0 h, 10 µM, compound concentration 10 uM, replicate number 2; also: unitless GR value; below 1 slowed growth and below 0 cell loss
Binned Growth Rate; ranges: label 0 (below -0.6), label 1 (-0.6 to below 0.3), label 2 (0.3 or more)

{"molecule": "c1ccc2nc(N3CCNCC3)ccc2c1 [QUIPAZINE]", "category label": "label 2"}
{"molecule": "CN1Cc2nccc(-c3cn(C)nc3-c3ccc(F)cc3)c2C1=O.Cl", "category label": "label 1"}
{"molecule": "O=C(Nc1ccc(Cl)c(-c2ccccn2)c1)c1cccc(COc2ccc(Br)cc2CNCCO)c1.O=CO", "category label": "label 2"}
{"molecule": "Cn1cc(C(=O)O)c2ccc(N3CCC(OCc4c(-c5c(Cl)cccc5Cl)noc4C4CC4)CC3)cc21 [TERN-101]", "category label": "label 2"}
{"molecule": "O=C(O)c1ccc2c(c1)nc(NCc1ccccc1)c1ncncc12", "category label": "label 0"}
{"molecule": "CNc1nc(Nc2ccc(C(=O)N3CCOCC3)cc2OC)nc2[nH]cc(Cl)c12", "category label": "label 1"}
{"molecule": "O=C(Nc1ccc(N2CCC(C(=O)N3CCOCC3)CC2)cc1)c1cnc(Oc2ccccc2)nc1", "category label": "label 0"}
{"molecule": "NC(=O)OC[C@H](NC(=O)Cn1nc(-c2ccc(Cl)cc2)n(C[C@H](O)C(F)(F)F)c1=O)c1cccc(C(F)(F)F)c1", "category label": "label 1"}
{"molecule": "CC(=O)N(CCN(C)C)c1ccc(N/C(=C2\\C(=O)Nc3cc(Cl)ccc32)c2ccccc2)cn1", "category label": "label 0"}

###

test system: Fibroblast; experiment: Incucyte cell viability with human fibroblast; assay type: toxicity, cell-based; conditions: 18 h, 10 µM, compound concentration 10 uM, replicate number 2; also: unitless GR value; below 1 slowed growth and below 0 cell loss
Use T when the recorded Growth Rate is no lower than 0.4; use F when it is lower.

{"molecule": "O=C(N[C@H]1CCCCC/C=C\\C2C[C@@]2(C(=O)O)NC(=O)[C@@H]2C[C@@H](Oc3ccncc3)CN2C1=O)OC1CCCC1 (stereo partly drawn) [BI 1675]", "category label": "T"}
{"molecule": "O=C(Nc1ccc(OC(F)(F)Cl)cc1)c1cnc(N2CC[C@@H](O)C2)c(-c2ccn[nH]2)c1 [ASCIMINIB]", "category label": "T"}
{"molecule": "COc1ccc(-c2c(-c3ccccc3)oc3ncnc(O[C@H](C)CCCCC(=O)O)c23)cc1", "category label": "T"}
{"molecule": "COCc1c(-c2cc3cc(C)cc(OC)c3s2)c2c(N)ncnn2c1CN[C@@H]1CCNC1=O", "category label": "T"}
{"molecule": "COc1cc(-c2cn(C)c(=O)c3cnccc23)c(OC)cc1CN(C)C", "category label": "T"}
{"molecule": "CCS(=O)(=O)c1ccc(OC)c(Nc2ncc(-c3cccc(F)c3)o2)c1 [GW621970X]", "category label": "T"}
{"molecule": "C[C@@H](CN1CCC(Cc2ccccc2)CC1)[C@@H](O)c1ccc(O)cc1", "category label": "T"}
{"molecule": "CN[C@@H](C)C(=O)N[C@H]1CCCC[C@H]2CC[C@@H](C(=O)N[C@@H](c3ccccc3)c3cn(CCCCc4ccc(CCCCn5cc([C@@H](NC(=O)[C@@H]6CC[C@@H]7CCCC[C@H](NC(=O)[C@H](C)NC)C(=O)N76)c6ccccc6)nn5)cc4)nn3)N2C1=O", "category label": "T"}
{"molecule": "CCN(CC)C/C=C/C(=O)Nc1cc2c(Nc3ccc(F)c(Cl)c3)ncnc2cc1OCC1CC1", "category label": "F"}
{"molecule": "C[C@H]1CN(C2COC2)CCN1c1ccc(Nc2cc(-c3ccnc(N4CCn5c(cc6c5CC(C)(C)C6)C4=O)c3CO)cn(C)c2=O)nc1 [FENEBRUTINIB]", "category label": "T"}
{"molecule": "CC(C)CC(=O)Nc1cncc(-c2ccc3[nH]nc(-c4nc5c(-c6cccc(F)c6)cncc5[nH]4)c3c2)c1 [LORECIVIVINT]", "category label": "F"}
{"molecule": "C=CC(=O)Nc1cc(-c2nn(C3CCC(N4CCN(C(C)=O)CC4)CC3)c3ncnc(N)c23)ccc1Oc1ccccc1 (stereo not drawn)", "category label": "F"}
{"molecule": "CC[C@H](C(=O)Nc1ccccc1N1CCCC1)c1ccccc1", "category label": "T"}
{"molecule": "Cc1cc(C2CCCNC2)ccc1Nc1ncc(Br)c(NCc2cccc3c2C(C)(C)C(=O)N3)n1 (stereo not drawn)", "category label": "T"}
{"molecule": "CC(C)(C)c1cnc(CSc2cnc(NC(=O)C3CCNCC3)s2)o1 [BMS-387032]", "category label": "F"}
{"molecule": "COc1cc2ncnc(Nc3ccc(F)c(Cl)c3)c2cc1OCCN(C)C[C@H](C)O", "category label": "F"}
{"molecule": "Cn1cc(NC(=O)c2ccc3nc4n(c3c2)CCCNC4=O)nc1C(=O)NC1CCCC1", "category label": "T"}
{"molecule": "CN1CCC(C#N)(NC(=O)[C@@H](NC(=O)N2CCOCC2)C(C)(C)C)CC1", "category label": "T"}
{"molecule": "CC(C)(O)C(=O)N1CCN(c2ccc(C(F)(F)F)c(C3=C(c4c[nH]c5ccccc45)C(=O)NC3=O)c2)CC1", "category label": "T"}
{"molecule": "CN1CCN(c2ccc(C(=O)Nc3n[nH]c4ccc(Cc5cc(F)cc(F)c5)cc34)c(NC3CCOCC3)c2)CC1 [ENTRECTINIB]", "category label": "F"}
{"molecule": "c1ccc(C(OC2CCN(CCCc3nnn[nH]3)CC2)c2ccccc2)cc1", "category label": "T"}
{"molecule": "Cc1cn(CCN2CCN(c3ccccc3-c3cc(C#N)cc(C(=O)NCCCN4CCCC4)c3)CC2)c2ccccc12", "category label": "F"}
{"molecule": "CC1=C(C(=O)OCCO)[C@@H](c2ccc(C#N)cc2)NC(=O)N1c1cccc(C(F)(F)F)c1", "category label": "T"}
{"molecule": "C[C@H](CCOc1cccc(CC(=O)O)c1)N(Cc1cccc(C(F)(F)F)c1Cl)CC(c1ccccc1)c1ccccc1.Cl", "category label": "F"}
{"molecule": "Cc1ccc2c(NS(=O)(=O)c3ccccc3Cl)cccc2c1Oc1ncccc1-c1ccnc(N[C@H]2CCCNC2)n1.Cl", "category label": "F"}
{"molecule": "COc1cc(F)ccc1-c1cc(Nc2cc(CS(C)(=N)=O)ccn2)ncc1F (stereo not drawn) [ENITOCICLIB]", "category label": "T"}
{"molecule": "NC(=O)c1ccc(-c2nc(-c3ccc4c(c3)OCCO4)c(-c3ccccn3)[nH]2)cc1", "category label": "T"}
{"molecule": "COc1ccc(NC(=O)[C@@H]2C[C@H](C)CC[C@H]2C(C)C)cc1 [ACOLTREMON]", "category label": "T"}
{"molecule": "CN(C)CCCNc1ccnc(Nc2cccc(Cl)c2)n1", "category label": "T"}
{"molecule": "NCC1CCC(CNc2nc(NCc3ccccc3OC(F)(F)F)ncc2[N+](=O)[O-])CC1 (stereo not drawn)", "category label": "F"}
{"molecule": "Cl.Cl.N#Cc1ccc(O[C@@H]2c3ccccc3C[C@H]2N2CCC[C@@H](N)C2)c(Cl)c1", "category label": "F"}
